experimentalSystem: HSV-1 ribonucleotide reductase (Human herpesvirus 1)
Construct: HSV-1 ribonucleotide reductase (partially purified) was obtained from quiescent BHK-21/C13 cells infected with strain F HSV-1 virus; endogenous in cells; host or cells: quiescent BHK-21/C13 (hamster) cells infected with HSV-1 strain F; partially purified enzyme preparation
assaySummary: Inhibition of Herpes Simplex Virus (HSV, Type 1) Ribonucleotide Reductase
Format: biochemical, herpes simplex virus type 1 (strain F)
experimentalSetup: separated diastereoisomer, first eluted on HPLC (footnotes 1, 3); mean of four assays
pIC50: −log10 of the molar value. Where a SMILES comes first, the peptide text is derived from it. The star is where a group is joined. X1 = CC1CCC(C)C(C(=O)*)C1C(=O)OCCc1ccccc1; X3 = O=C(CCc1ccccc1)C1CCCCC1C(=O)*; Pyrrolidide = C1CCN(*)C1; NEt2 = CCN(CC)*
Listed next: entries and their corresponding pIC50.
assayReadout: pIC50

{"columns": ["compound", "assayReadout", "reading"],
 "data": [
  ["CC[C@H](C)[C@H](NC(=O)C1C(C)CCC(C)C1C(=O)OCCc1ccccc1)C(=O)N[C@@H](CC(=O)N1CCCC1)C(=O)N[C@@H](CC(=O)O)C(=O)N[C@@H](CC(C)C)C(=O)O (stereo partly drawn) (X1-ID(Pyrrolidide)DL-OH)", "pIC50", 6.30],
  ["CC[C@H](C)[C@H](NC(=O)C1CCCCC1C(=O)CCc1ccccc1)C(=O)N[C@@H](CC(=O)N(CC)CC)C(=O)N[C@@H](CC(=O)O)C(=O)N[C@@H](CC(C)C)C(=O)O (stereo partly drawn) (X3-ID(NEt2)DL-OH)", "pIC50", 5.85]
]}

* * *

experimentalSystem: HSV-1 ribonucleotide reductase (Human herpesvirus 1, UniProt P08543)
Construct: HSV-1 ribonucleotide reductase (partially purified) was obtained from quiescent BHK-21/C13 cells infected with strain F HSV-1 virus; endogenous in cells; host or cells: quiescent BHK-21/C13 (hamster) cells infected with HSV-1 strain F; partially purified enzyme preparation
Sequence (P08543 whole entry): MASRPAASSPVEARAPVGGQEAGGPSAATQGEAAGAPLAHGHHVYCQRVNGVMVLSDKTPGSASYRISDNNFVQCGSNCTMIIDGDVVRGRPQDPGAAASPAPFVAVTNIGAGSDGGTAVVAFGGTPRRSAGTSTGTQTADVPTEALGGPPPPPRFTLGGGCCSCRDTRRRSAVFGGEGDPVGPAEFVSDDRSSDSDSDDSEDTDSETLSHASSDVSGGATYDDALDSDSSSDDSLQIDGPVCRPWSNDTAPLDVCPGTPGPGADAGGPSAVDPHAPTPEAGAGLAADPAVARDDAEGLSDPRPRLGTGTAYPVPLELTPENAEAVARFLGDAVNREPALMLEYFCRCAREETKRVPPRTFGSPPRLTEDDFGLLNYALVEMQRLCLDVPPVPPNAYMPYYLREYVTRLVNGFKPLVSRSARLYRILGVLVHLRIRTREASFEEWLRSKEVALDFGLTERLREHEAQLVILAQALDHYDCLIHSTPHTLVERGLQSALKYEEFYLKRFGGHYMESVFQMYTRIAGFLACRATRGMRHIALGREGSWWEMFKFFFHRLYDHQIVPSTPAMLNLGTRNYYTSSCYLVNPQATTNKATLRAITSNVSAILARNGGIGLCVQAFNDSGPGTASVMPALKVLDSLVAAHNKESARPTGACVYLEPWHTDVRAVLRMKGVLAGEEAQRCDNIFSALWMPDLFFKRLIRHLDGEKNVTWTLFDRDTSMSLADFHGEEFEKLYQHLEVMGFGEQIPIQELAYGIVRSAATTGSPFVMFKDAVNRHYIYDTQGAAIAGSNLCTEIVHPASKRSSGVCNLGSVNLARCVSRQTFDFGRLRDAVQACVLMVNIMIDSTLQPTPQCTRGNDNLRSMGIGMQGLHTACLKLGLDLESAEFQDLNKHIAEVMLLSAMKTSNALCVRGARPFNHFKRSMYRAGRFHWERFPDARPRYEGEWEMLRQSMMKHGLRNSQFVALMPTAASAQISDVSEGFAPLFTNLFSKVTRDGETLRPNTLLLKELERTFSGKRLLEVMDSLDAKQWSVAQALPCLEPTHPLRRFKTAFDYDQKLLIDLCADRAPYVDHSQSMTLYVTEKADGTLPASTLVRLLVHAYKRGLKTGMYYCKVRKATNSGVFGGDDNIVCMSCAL
assaySummary: Inhibition of Herpes Simplex Virus (HSV, Type 1) Ribonucleotide Reductase
Type: biochemical, herpes simplex virus type 1 (strain F)
experimentalSetup: concentration producing 50% of the maximal inhibition of enzyme activity; partially purified enzyme; mean of four assays
Where a SMILES comes first, the peptide text is derived from it. [ ]: non-standard residue; d: D form. The star is where a group is joined. Asp(3,3-(CH2)4) = N[C@H](C(=O)O)C1(C(=O)O)CCCC1; Gly(1-COOH-cBu) = N[C@H](C(=O)O)C1(C(=O)O)CCC1; cPrCO(2,2,3,3-Me4) = CC1(C)C(C(=O)*)C1(C)C; Benzoyl(2-Ph) = O=C(c1ccccc1-c1ccccc1)*; Pentanoyl(4-Me) = CC(C)CCC(=O)*; Butanoyl(2-Et) = CCC(CC)C(=O)*; O(2S-octyl) = CCCCCC[C@H](C)O*; Tle = CC(C)(C)[C@H](N)C(=O)O; Leu(ol) = CC(C)C[C@H](N)CO; Hiv = CC(C)[C@H](O)C(=O)O; Isovaleryl = CC(C)CC(=O)*; Morpholide = C1CN(*)CCO1; Pyrrolidide = C1CCN(*)C1; X4 = CC1CCCC(C)C1C(=O)*; X6 = CCCCCCCCN(C)*; Bn = c1ccc(C*)cc1
Listed next: entries and their corresponding IC50.

{"columns": ["compound", "IC50 [µM]"],
 "data": [
  ["CC[C@H](C)[C@H](NC(=O)c1ccccc1-c1ccccc1)C(=O)N[C@@H](CC(=O)N1CCCC1)C(=O)N[C@@H](CC(=O)O)C(=O)N[C@@H](CC(C)C)C(=O)O ({Benzoyl(2-Ph)}-ID(Pyrrolidide)DL-OH)", 3.6],
  ["CCC(CC)C(=O)N[C@H](C(=O)N[C@@H](CC(=O)N1CCCC1)C(=O)N[C@@H](CC(=O)O)C(=S)N[C@@H](CC(C)C)C(=O)O)C(C)(C)C", 1.9],
  ["CCCCCC[C@H](C)OC(=O)C[C@H](NC(=O)[C@@H](NC(=O)C(CC)CC)C(C)(C)C)C(=O)N[C@H](C(=O)N[C@@H](CC(C)C)C(=O)O)C1(C(=O)O)CCCC1 ({Butanoyl(2-Et)}-[Tle]D(O(2S-octyl))[Asp(3,3-(CH2)4)]L-OH)", 0.37],
  ["CC[C@H](C)[C@H](NC(=O)c1ccccc1-c1ccccc1)C(=O)N[C@@H](CC(=O)N1CCOCC1)C(=O)N[C@@H](CC(=O)O)C(=O)N[C@@H](CC(C)C)C(=O)O ({Benzoyl(2-Ph)}-ID(Morpholide)DL-OH)", 7.2],
  ["CCC(CC)C(=O)N[C@H](C(=O)N[C@@H](CC(=O)N1CCCC1)C(=O)N[C@@H](CC(=O)O)C(=O)N[C@@H](CC(C)C)C(=O)O)[C@@H](C)OCc1ccccc1 ({Butanoyl(2-Et)}-T(Bn)D(Pyrrolidide)DL-OH)", 3.4],
  ["CCC(CC)C(=O)N[C@H](C(=O)N[C@@H](CC(=O)N1CCCC1)C(=O)N[C@@H](CC(=O)O)C(=O)NCCC(C)(C)C)C1CCCC1", 35],
  ["CC[C@H](C)[C@H](NC(=O)CCC(C)C)C(=O)N[C@@H](CC(=O)N1CCCC1)C(=O)N[C@@H](CC(=O)O)C(=O)N[C@@H](CC(C)C)C(=O)O ({Pentanoyl(4-Me)}-ID(Pyrrolidide)DL-OH)", 3],
  ["CC[C@H](C)[C@H](NC(=O)CC(C)C)C(=O)N[C@@H](CC(=O)N1CCCC1)C(=O)N[C@@H](CC(=O)O)C(=O)N[C@@H](CC(C)C)C(=O)O (Isovaleryl-ID(Pyrrolidide)DL-OH)", 2.7],
  ["CCCCCCCCN(C)C(=O)C[C@H](NC(=O)[C@@H](NC(=O)C(CC)CC)C(C)(C)C)C(=O)N[C@H](C(=O)N[C@@H](CC(C)C)C(=O)O)C1(C(=O)O)CCC1 ({Butanoyl(2-Et)}-[Tle]D(X6)[Gly(1-COOH-cBu)]L-OH)", 0.2],
  ["CC[C@H](C)[C@H](NC(=O)C1C(C)(C)C1(C)C)C(=O)N[C@@H](CC(=O)N1CCCC1)C(=O)N[C@@H](CC(=O)O)C(=O)N[C@@H](CC(C)C)C(=O)O ({cPrCO(2,2,3,3-Me4)}-ID(Pyrrolidide)DL-OH)", 1.4],
  ["CCC(CC)C(=O)N[C@H](C(=O)N[C@@H](CC(=O)N1CCCC1)C(=O)N[C@@H](CC(=O)O)C(=O)N[C@H](CO)[C@@H](C)CC)C(C)(C)C", 11],
  ["CC[C@H](C)[C@H](NC(=O)C1C(C)CCCC1C)C(=O)N[C@@H](CC(=O)N1CCCC1)C(=O)N[C@@H](CC(=O)O)C(=O)N[C@@H](CC(C)C)C(=O)O (stereo partly drawn) (X4-ID(Pyrrolidide)DL-OH)", 2.1],
  ["CCC(CC)C(=O)N[C@H](C(=O)N[C@@H](CC(=O)N1CCCC1)C(=O)N[C@@H](CC(=O)O)C(=O)NCCC(C)(C)C)C(C)(C)C", 18],
  ["CCCCC(C(=O)O)[C@H](NC(=O)[C@H](CC(=O)N1CCCC1)NC(=O)[C@@H](NC(=O)C(CC)CC)C(C)(C)C)C(=O)N[C@@H](CC(C)C)C(=O)O (some centres unmarked)", 2],
  ["CCCCCC[C@H](C)OC(=O)C[C@H](NC(=O)[C@@H](NC(=O)C(CC)CC)C(C)(C)C)C(=O)N[C@H](C(=O)N[C@@H](CC(C)C)C(=O)O)C1(C(=O)O)CCC1 ({Butanoyl(2-Et)}-[Tle]D(O(2S-octyl))[Gly(1-COOH-cBu)]L-OH)", 0.5],
  ["CCC(CC)C(=O)N[C@H](C(=O)N[C@@H](CC(=O)N1CCCC1)C(=O)N[C@@H](CC(=O)O)C(=O)NCCC(C)(C)C)[C@@H](C)OC", 75],
  ["CCC(CC)C(=O)N[C@H](C(=O)N[C@@H](CC(=O)N1CCCC1)C(=O)N[C@H](C(=O)N[C@@H](CC(C)C)C(=O)O)C(CC)(CC)C(=O)O)C(C)(C)C", 0.1],
  ["CC(C)C[C@H](NC(=O)[C@H](CC(=O)O)NC(=O)[C@H](CC(=O)N1CCCC1)NC(=O)[C@@H](NC(=O)[C@@H](O)C(C)C)C(C)(C)C)C(=O)O (H-[Hiv][Tle]D(Pyrrolidide)DL-OH)", 2.8],
  ["CCC(CC)C(=O)N[C@H](C(=O)N[C@@H](CC(=O)N1CCCC1)C(=O)N[C@H](C(=O)N[C@H](CO)CC(C)C)C1(C(=O)O)CCCC1)C(C)(C)C ({Butanoyl(2-Et)}-[Tle]D(Pyrrolidide)[Asp(3,3-(CH2)4)][Leu(ol)])", 0.5],
  ["CCC(CC)C(=O)N[C@H](C(=O)N[C@@H](CC(=O)N1CCCC1)C(=O)N[C@@H](CC(=O)O)C(=O)N[C@H](CO)CC1CCCCC1)C(C)(C)C", 10.5]
]}
